Test system: ACHN
ASSAY METHOD TEXT: NCI tumour cell line growth inhibition, 48 h
Active and inactive are the calls of the source. Cut-off read from the data, not from the text of the source: active = GI50 up to about 1.1 µM and inactive = higher. Non-standard residues stand in square brackets, D forms with d. Residues, ends and D or L forms follow the SMILES beside them. Ava = NCCCCC(=O)O; Mpa = O=C(O)CCS
Choose one outcome from this list and give only that: active, inactive

These recorded examples may help you get a feel for the data.
COMPOUND | ASSAYED TARGET | CLASS
S=C1SC(c2ccc(Cl)cc2)(c2ccc(Cl)cc2)c2ccccc21 | ACHN | inactive
COc1cc(O)c(/C=N/N=C(\N)NO)c(OC)c1 | ACHN | inactive
O=C1/C(=C/c2ccccc2)CN(C(=O)Oc2ccc([N+](=O)[O-])cc2)C/C1=C\c1ccccc1 | ACHN | inactive
COc1cc(C2C(C(=O)O)=C(CO)Oc3cc4c(cc32)OCO4)cc(OC)c1O (stereo unspecified) | ACHN | inactive
CCOC(=O)C(=O)Nc1nc2ccc(C)cc2s1 | ACHN | inactive
CCCCCCCCCCCCCCCCOC[C@@H](COC(c1ccccc1)(c1ccccc1)c1ccccc1)O[PH](=S)OC (stereo partly specified) | ACHN | inactive
CC(NC(=O)CCS)C(=O)NC(C)C(=O)NC(Cc1c[nH]c2ccccc12)C(=O)NC(Cc1c[nH]cn1)C(=O)NC(CO)C(=O)NC(Cc1c[nH]c2ccccc12)C(=O)NCCCCC(=O)NC(C)C(=O)NC(CCC(N)=O)C(=O)NC(CCCCN)C(=O)NC(C)C(=O)NC(CCCNC(=N)N)C(=O)NC(CCCCN)C(N)=O (stereo unspecified) ([Mpa]AAWHSW[Ava]AQKARK-NH2; configuration not given here) | ACHN | inactive
COc1ccc(Cc2nc3cc(C(F)(F)F)ccc3n2C[C@@H]2CCCN3CCCCC23)cc1 (stereo partly specified) | ACHN | inactive
CN1CCc2ccccc2C(C(=O)c2ccc3c(c2)OCO3)C1=O (stereo unspecified) | ACHN | inactive
Cc1ccc2c(c1)[nH]c(=S)n2C=C(C(N)=O)C(N)=O | ACHN | inactive

Q. Would you mind telling me which call this test gave CNC1c2ccccc2C(=O)c2cc3c(cc21)OCCOCCOCCOCCO3 (stereo unspecified) ?
A. inactive

Q. Would you mind telling me which call this test gave O=C(CSCC(=O)N/N=C\c1cc(Cl)cc(Cl)c1O)N/N=C\c1cc(Cl)cc(Cl)c1O ?
A. active

Q. Would you mind telling me which call this test gave COc1cc(/C=C2\CCc3ccccc3C2=O)cc(OC)c1OC ?
A. inactive

Q. Would you mind telling me which call this test gave O=C1C(Br)=CC2(C=C1Br)CCNC1=C2C(=O)c2ccccc2C1=O ?
A. inactive

* * *

Tested on: TK-10
ASSAY METHOD TEXT: NCI tumour cell line growth inhibition, 48 h
Calls of active or inactive are those of the source. Rule as the data show it: active = GI50 up to about 1.1 µM and inactive = higher.
Choose one outcome from this list and give only that: 1 (yes) for active, 0 (no) for inactive

These recorded examples may help you get a feel for the data.
MOLECULE | CLASS
BC(=O)NC(CC(C)C)C(=O)NCC(=O)NC1c2ccsc2C(=O)C1O.CN(C)C (stereo not given) | 0 (no)
CCOC(=O)C1CCCN1C(=O)c1ccccc1Cl (stereo not given) | 0 (no)
CNC(=O)N(CCC#N)CCN(C(=O)N(C)C)c1ccccc1 | 0 (no)
Cc1c2ccncc2cc2c1sc1ccncc12 | 0 (no)
Cc1cc(N(CCC#N)CCC#N)ccc1/C=C/C(=O)Nc1cccc(Cl)c1 | 0 (no)

# ---- query molecule ----
Q. Would you mind telling me which call this test gave CCOC(=O)C(=O)Nc1c(F)cc(F)cc1Br ?
A. 0 (no)

* * *

# Lookup of reported GI50 keyed by entry
Tested on: RPMI-8226
ASSAY METHOD TEXT: NCI tumour cell line growth inhibition, 48 h
Calls of active or inactive are those of the source. Rule as the data show it: active = GI50 up to about 1.1 µM and inactive = higher.

Record excerpt, results attached:
COMPOUND | ASSAYED TARGET | MEASUREMENT TYPE | MEASURED
CC(C)CC(=O)NC(NC(C)C)(C(F)(F)F)C(F)(F)F | RPMI-8226 | GI50 | > 100 µM (inactive)
CC1=C(C(=O)NCCCN(CCO)CCO)CC(C(=O)NCCCN(CCO)CCO)=C(C)N1 | RPMI-8226 | GI50 | 76 µM (inactive)
[C-]#[N+]C1(C(=O)OCC)CC1 | RPMI-8226 | GI50 | > 100 µM (inactive)
CNC1c2ccccc2C(=O)c2cc3c(cc21)OCCOCCOCCOCCO3 (centres undefined) | RPMI-8226 | GI50 | 34.8 µM (inactive)
CCOC(=O)CNC(SC)=C(C#N)C#N | RPMI-8226 | GI50 | > 100 µM (inactive)

For reference, reported GI50 for C=C1C(=O)O[C@H]2[C@@H](O)[C@H](C)CCC[C@]3(C)O[C@H]3CC[C@@]3(C)O[C@@H]3C[C@@H]12 stands at 2.15 µM (inactive)

For reference, reported GI50 for Cc1ccc(Nc2nc3ccccc3nc2NS(=O)(=O)c2ccc(N)cc2)cc1 stands at 23.6 µM (inactive)

For reference, reported GI50 for O=c1[nH]c2cc([N+](=O)[O-])ccc2nc1/C(=N/Nc1ccccc1)C(O)c1ccccc1Cl (centres undefined) stands at 52.4 µM (inactive)

For reference, reported GI50 for N#CCc1n[nH]c2nc(SCc3ccccc3)nc(N3CCCCC3)c12 stands at 27.1 µM (inactive)

* * *

System: MCF7
ASSAY METHOD TEXT: NCI tumour cell line growth inhibition, 48 h
Calls of active or inactive are those of the source. Rule as the data show it: active = GI50 up to about 1.1 µM and inactive = higher.
Choose one outcome from this list and give only that: YES for active, NO for inactive

COMPOUND | CLASS
N#C/C(=C\N1CCNC1=S)C(=O)c1ccc2ccccc2c1 | NO
COC(=O)C(NC(=O)C12CCC(C)(C(=O)O1)C2(C)C)c1cc(C(C)(C)C)c(O)c(C(C)(C)C)c1 (stereo not given) | NO
O=c1[nH]c(=O)c2c([nH]1)[nH]c1ccccc12 | NO

Q. Would you mind telling me which call this test gave O=S(=O)(O)c1c(Cl)c(Cl)c(O)c2ncccc12 ?
A. NO

Q. Would you mind telling me which call this test gave O=C1Nc2ccccc2Cn2c1cc1oc(-c3ccccc3)cc12 ?
A. NO

Q. Would you mind telling me which call this test gave O=C(CCCCCNC(=O)c1ccc(Cl)cc1)NO ?
A. NO

Q. Would you mind telling me which call this test gave COc1nc(SC)nc2c1cnn2C1OC(C(O)CO)C(OC)C1O (stereo not given) ?
A. NO

Q. Would you mind telling me which call this test gave COC(=O)C1CCC(=O)N1C(c1cc(OC)c(OC)c(OC)c1)c1cccc2ccccc12 (stereo not given) ?
A. NO

Q. Would you mind telling me which call this test gave CCOC(=O)Cc1nc2c(N)ncnc2n1C1OC(COC(C)=O)C(OC(C)=O)C1OC(C)=O (stereo not given) ?
A. NO

Q. Would you mind telling me which call this test gave O=[N+]([O-])/C(C(Cl)=C(Cl)Cl)=C1\NCCO1 ?
A. NO

Q. Would you mind telling me which call this test gave Nc1ncnc2c1ncn2-c1ccc([N+](=O)[O-])cn1 ?
A. NO

Q. Would you mind telling me which call this test gave c1cncc(CC2(c3cc4ccccc4[nH]3)OCCO2)c1 ?
A. NO

Q. Would you mind telling me which call this test gave COC(=O)c1cc2c(cc1C(=O)OC)[C@@]1(C)CCCC(C)(C)C1CC2 (stereo not given in full) ?
A. NO

Q. Would you mind telling me which call this test gave CC(CC[C@@H](O)C(C)(C)O)C1[C@@H](O)CC2(C)C3CC(O)C4C(C)(C)[C@@H](OC5OC(CO)C(O)C(O)C5O)CC[C@@]45C[C@@]35CC[C@]12C (stereo not given in full) ?
A. NO

Q. Would you mind telling me which call this test gave CCOC(=O)[C@@H]1[C@@H]2NC(=O)N[C@@]1(C)Oc1ccccc12 ?
A. NO

Q. Would you mind telling me which call this test gave COc1cc(/C=C/C(=O)OC[C@]23O[C@H]2[C@@H](OC2OC(C)C(O)C(O)C2O)C2C=CO[C@@H](OC4OC(CO)C(O)C(O)C4O)C23)ccc1O (stereo not given in full) ?
A. NO

Q. Would you mind telling me which call this test gave CCN(CC)CCC1CCCCN1CC(=O)N1c2cc(Cl)ccc2NC(=O)CC1C (stereo not given) ?
A. NO

Q. Would you mind telling me which call this test gave COc1cc2cc(C(=O)N3C[C@H](CCl)c4c3cc(O)c3ccccc43)[nH]c2c(OC)c1OC ?
A. YES

Q. Would you mind telling me which call this test gave N#CCc1n[nH]c2nc(SCc3ccccc3)nc(N3CCCCC3)c12 ?
A. NO

Q. Would you mind telling me which call this test gave C[C@H](CS)C(=O)N1c2ccccc2C[C@H]1C(=O)O ?
A. NO

* * *

Tested on: KM12
ASSAY METHOD TEXT: NCI tumour cell line growth inhibition, 48 h
The source made the active and inactive calls. No stated cut-off is given here; in the data, active = GI50 up to about 1.1 µM and inactive = higher. Non-standard residues stand in square brackets, D forms with d. Residues, ends and D or L forms follow the SMILES beside them. Ava = NCCCCC(=O)O; Mpa = O=C(O)CCS
Choose one outcome from this list and give only that: active, inactive

These recorded examples may help you get a feel for the data.
COMPOUND | CLASS
O=S(=O)(O)c1c(Cl)c(Cl)c(O)c2ncccc12 | inactive
Nc1nc(-c2ccccc2)cc(-c2ccc(OCc3ccccc3)cc2O)n1 | inactive
CC(NC(=O)CCS)C(=O)NC(C)C(=O)NC(Cc1c[nH]c2ccccc12)C(=O)NC(Cc1c[nH]cn1)C(=O)NC(CO)C(=O)NC(Cc1c[nH]c2ccccc12)C(=O)NCCCCC(=O)NC(C)C(=O)NC(CCC(N)=O)C(=O)NC(CCCCN)C(=O)NC(C)C(=O)NC(CCCNC(=N)N)C(=O)NC(CCCCN)C(N)=O (configuration not stated) ([Mpa]AAWHSW[Ava]AQKARK-NH2; configuration not given here) | inactive
Cc1cnc(/N=c2\sc(C)cn2-c2ncc(C)s2)s1 | inactive
Nc1ccc(Cc2ccc(/N=C\c3ccc(OCc4cccc(COc5ccc(/C=N\c6ccc(Cc7ccc(N)cc7)cc6)cc5)n4)cc3)cc2)cc1 | inactive

# ---- query compound ----
Q. Would you mind telling me which call this test gave CNC(=O)N(CCC#N)CCN(C(=O)N(C)C)c1ccccc1 ?
A. inactive
